molecular target: unphosphorylated c-KIT kinase (uKIT, Seq. ID no. 2) (Homo sapiens, UniProt P10721); construct: uKit with N-terminal GST fusion used for screening; test: uKit kinase enzymatic assay (pyruvate kinase/lactate dehydrogenase coupled); format: biochemical; details: ATP 2000 μM, rate 3 to 4 h
Sequence (P10721 with tags, fused parts or gaps): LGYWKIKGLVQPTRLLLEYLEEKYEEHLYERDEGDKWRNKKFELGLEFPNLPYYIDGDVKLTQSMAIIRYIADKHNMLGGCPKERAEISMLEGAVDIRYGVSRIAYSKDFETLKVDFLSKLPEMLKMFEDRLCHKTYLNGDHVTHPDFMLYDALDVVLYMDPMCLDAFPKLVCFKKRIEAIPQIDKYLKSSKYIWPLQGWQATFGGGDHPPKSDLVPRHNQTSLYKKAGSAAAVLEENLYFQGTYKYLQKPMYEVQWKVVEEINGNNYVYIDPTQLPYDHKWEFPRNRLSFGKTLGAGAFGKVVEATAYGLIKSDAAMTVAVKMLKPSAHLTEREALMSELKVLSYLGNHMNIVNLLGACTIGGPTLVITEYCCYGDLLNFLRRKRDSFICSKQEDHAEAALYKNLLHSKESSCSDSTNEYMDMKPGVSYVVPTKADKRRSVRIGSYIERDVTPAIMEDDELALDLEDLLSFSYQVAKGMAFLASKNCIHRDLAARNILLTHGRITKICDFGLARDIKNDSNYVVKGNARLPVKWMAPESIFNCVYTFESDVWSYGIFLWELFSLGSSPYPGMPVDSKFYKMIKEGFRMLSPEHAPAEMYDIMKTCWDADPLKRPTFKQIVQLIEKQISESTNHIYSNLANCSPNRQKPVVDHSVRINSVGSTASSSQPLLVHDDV
PARAMETER: IC50

Answered cases to consult:
1) COCCc1nn(-c2ccc(Oc3ccnc(-c4cnn(C)c4)c3)c(C)n2)c(=O)[nH]1 [Example 15] | > 1 µM
2) Cc1nc(-n2nc(C(C)(C)C)[nH]c2=O)ccc1Oc1ccnc(-c2cnn(CCO)c2)c1 [Example 18] | 0.1 to 1 µM
3) CNC(=O)c1cc(Oc2ccc(-n3nc(C(C)(C)C)[nH]c3=O)nc2)ccn1 [Example 26] | > 1 µM

Then there is this molecule:
Assign IC50 to the following record: Cc1nc(-n2nc(C(C)(C)C)[nH]c2=O)ccc1Oc1ccnc(-c2cn[nH]c2)c1 [Example 24]
> 1 µM

* * *

molecular target: unphosphorylated c-FMS kinase (uFMS, Seq. ID no. 1) (Homo sapiens); assay: uFMS kinase enzymatic assay (pyruvate kinase/lactate dehydrogenase coupled); details: ATP 500 μM, rate 3 to 4 h
pIC50: −log10 of the molar value.
Below, each of the molecules is paired with its reported pIC50 value.

Answered cases to consult:
1) Cc1nc(-n2nc(C(C)(C)C)[nH]c2=O)ccc1Oc1ccnc(-c2cn[nH]c2)c1 | 6.00 to 7.00
2) Cc1nc(-n2nc(C(C)(C)C)oc2=O)ccc1Oc1ccnc(-c2cnn(C)c2)c1 | 7.00 to 8.00
3) Cc1nc(-n2nc(C3CCC3)[nH]c2=O)ccc1Oc1ccnc(-c2cnn(C)c2)c1 | ≥ 8.00
4) Cc1nc(-n2nc(C3(C)CC3)[nH]c2=O)ccc1Oc1ccnc(-c2cnn(C)c2)c1 | ≥ 8.00
5) Cc1nc(-n2nc(C(C)(C)C)[nH]c2=O)ccc1Oc1ccnc(-c2cnn(CCO)c2)c1 | 7.00 to 8.00

Assign pIC50 to the following record: CCC(C)(C)c1nn(-c2ccc(Oc3ccnc(-c4cnn(C)c4)c3)c(C)n2)c(=O)[nH]1
≥ 8.00

Assign pIC50 to the following record: Cc1nc(-n2nc(C(C)(C)C)n(C)c2=O)ccc1Oc1ccnc(-c2cnn(C)c2)c1
7.00 to 8.00

Assign pIC50 to the following record: COCc1nn(-c2ccc(Oc3ccnc(-c4cnn(C)c4)c3)c(C)n2)c(=O)[nH]1
6.00 to 7.00

* * *

Target: unphosphorylated c-FMS kinase (uFMS, Seq. ID no. 1) (Homo sapiens, UniProt P07333)
Sequence (P07333 538-972): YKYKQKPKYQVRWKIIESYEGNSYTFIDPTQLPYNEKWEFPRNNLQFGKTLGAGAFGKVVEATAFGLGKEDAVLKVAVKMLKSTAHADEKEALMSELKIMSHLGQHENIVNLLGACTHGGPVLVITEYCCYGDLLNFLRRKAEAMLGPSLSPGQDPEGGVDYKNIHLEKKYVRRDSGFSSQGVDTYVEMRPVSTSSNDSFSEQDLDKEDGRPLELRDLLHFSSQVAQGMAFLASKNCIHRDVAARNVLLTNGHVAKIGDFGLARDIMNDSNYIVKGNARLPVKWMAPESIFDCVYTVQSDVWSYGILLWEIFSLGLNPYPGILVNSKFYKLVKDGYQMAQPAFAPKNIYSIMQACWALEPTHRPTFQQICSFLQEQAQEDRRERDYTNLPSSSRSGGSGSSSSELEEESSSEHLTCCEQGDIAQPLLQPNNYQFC
Test: uFMS kinase enzymatic assay (pyruvate kinase/lactate dehydrogenase coupled)
Details: ATP 500 μM, rate 3 to 4 h
Below, each of the molecules is paired with its reported IC50 value.

Answered cases to consult:
1) COCC(C)(C)c1nn(-c2ccc(Oc3ccnc(-c4cnn(C)c4)c3)c(C)n2)c(=O)[nH]1 [Example 46] | 10 to 100 nM
2) Cc1nc(-n2nc(C(C)C)[nH]c2=O)ccc1Oc1ccnc(-c2cnn(C)c2)c1 [Example 5] | 10 to 100 nM

Assign IC50 to the following record: Cc1nc(-n2nc(Cc3ccccc3)[nH]c2=O)ccc1Oc1ccnc(-c2cnn(C)c2)c1 [Example 2]
≤ 10 nM

Assign IC50 to the following record: Cc1ccc(-c2cc(Oc3ccc(-n4nc(C(C)(C)C)[nH]c4=O)nc3C)ccn2)cn1 [Example 10]
10 to 100 nM
